system: panel of 55 breast cancer cell lines; experiment: Cell growth inhibition assay (Cell Titer Glo, 72 h, 9 doses; GI50, TGI, LC50); format: cell-based, human; conditions: Homo sapiens, cell line MDAMB175V; read-out: GI50 (converted)
Observation Type: log10(GI50) (log10 of the value in nM)
# log10 transformed; quantity=GI50; unit=nM

Checklist item: log10(GI50) tested on panel of 55 breast cancer cell lines, entry "CC[C@@]1(O)C(=O)OCc2c1cc1n(c2=O)Cc2cc3c(CN(C)C)c(O)ccc3nc2-1" , value?
3.46

Checklist item: log10(GI50) tested on panel of 55 breast cancer cell lines, entry "C#Cc1cccc(Nc2ncnc3cc(OCCOC)c(OCCOC)cc23)c1" , value?
3.49

Checklist item: log10(GI50) tested on panel of 55 breast cancer cell lines, entry "Cc1[nH]c2ccccc2c1CCNCc1ccc(/C=C/C(=O)NO)cc1" , value?
2.59

Checklist item: log10(GI50) tested on panel of 55 breast cancer cell lines, entry "CN(C)C/C=C/C(=O)Nc1cc2c(Nc3ccc(F)c(Cl)c3)ncnc2cc1O[C@H]1CCOC1" , value?
0.65

Checklist item: log10(GI50) tested on panel of 55 breast cancer cell lines, entry COc1cc([C@@H]2c3cc4c(cc3[C@@H](O[C@@H]3O[C@@H]5CO[C@@H](C)O[C@H]5[C@H](O)[C@H]3O)[C@H]3COC(=O)[C@H]23)OCO4)cc(OC)c1O [Etoposide] , value?
4.86

Checklist item: log10(GI50) tested on panel of 55 breast cancer cell lines, entry "COc1cccc2c1C(=O)c1c(O)c3c(c(O)c1C2=O)C[C@@](O)(C(=O)CO)C[C@@H]3O[C@H]1C[C@H](N)[C@H](O)[C@H](C)O1" , value?
2.85

Checklist item: log10(GI50) tested on panel of 55 breast cancer cell lines, entry "CCNCCCNC/C=C\CNCCCNCC" , value?
5.79

Checklist item: log10(GI50) tested on panel of 55 breast cancer cell lines, entry "CC(=O)O[C@@]12CO[C@@H]1C[C@H](O)[C@@]1(C)C(=O)[C@H](O)C3=C(C)[C@@H](OC(=O)[C@H](O)[C@@H](NC(=O)OC(C)(C)C)c4ccccc4)C[C@@](O)([C@@H](OC(=O)c4ccccc4)[C@H]21)C3(C)C" , value?
1.20

----------
tested on: panel of 55 breast cancer cell lines; test: Cell growth inhibition assay (Cell Titer Glo, 72 h, 9 doses; GI50, TGI, LC50); type: cell-based, human; conditions: Homo sapiens, HCC1428, cell line HCC1428; read-out: GI50 (converted)
Observation Type: GI50
Please state the value followed by its unit.

Checklist item: GI50 tested on panel of 55 breast cancer cell lines, entry Cc1ccc(C(=O)N(CCCN)[C@@H](c2nc3cc(Cl)ccc3c(=O)n2Cc2ccccc2)C(C)C)cc1 [Ispinesib] , value?
4.47 µM

Checklist item: GI50 tested on panel of 55 breast cancer cell lines, entry CC[C@@]1(O)C(=O)OCc2c1cc1n(c2=O)Cc2cc3c(CN(C)C)c(O)ccc3nc2-1 [Topotecan] , value?
0.447 µM

Checklist item: GI50 tested on panel of 55 breast cancer cell lines, entry CNC(=O)c1cc(Oc2ccc(NC(=O)Nc3ccc(Cl)c(C(F)(F)F)c3)cc2)ccn1 [Sorafenib] , value?
45.7 µM

Checklist item: GI50 tested on panel of 55 breast cancer cell lines, entry O=C1c2ccccc2-[n+]2ccc3c([nH]c4ccccc43)c21 [Fascaplysin] , value?
0.0372 µM

Checklist item: GI50 tested on panel of 55 breast cancer cell lines, entry COc1cc2ncnc(Nc3ccc(F)c(Cl)c3)c2cc1OCCCN1CCOCC1 [Gefitinib] , value?
10.7 µM

Checklist item: GI50 tested on panel of 55 breast cancer cell lines, entry C#Cc1cccc(Nc2ncnc3cc(OCCOC)c(OCCOC)cc23)c1 [Erlotinib] , value?
17.8 µM
